target: T1, FcRn-p3 fusion protein (human, UniProt P55899 24-297; P61769 21-119); assay: phage ELISA pH6 (est.)
T1 construct: baculovirus expressed; coated on ELISA wells; not shown: amino terminal part of bacteriophage p3 protein and CVDE protein
T1 sequence (P55899 24-297, chain 1 of 2): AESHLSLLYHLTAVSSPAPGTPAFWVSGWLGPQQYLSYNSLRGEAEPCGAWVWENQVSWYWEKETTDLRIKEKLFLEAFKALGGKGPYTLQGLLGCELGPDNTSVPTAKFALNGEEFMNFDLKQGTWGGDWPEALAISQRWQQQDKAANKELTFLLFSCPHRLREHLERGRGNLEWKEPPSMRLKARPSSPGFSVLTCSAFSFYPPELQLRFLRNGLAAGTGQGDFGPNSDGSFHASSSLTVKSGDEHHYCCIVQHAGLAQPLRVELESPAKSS
T1 sequence (P61769 21-119, chain 2 of 2): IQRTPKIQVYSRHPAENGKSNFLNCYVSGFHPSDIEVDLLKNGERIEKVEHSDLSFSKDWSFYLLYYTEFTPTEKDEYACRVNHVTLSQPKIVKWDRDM
The following binders are listed with their measured Ratio/FWT values.
Use fold as the unit, but write only the number.

// known answers, use as guide
M3A_21 (other, EU numbering) CPPCPAPELLGGPSVLLFPPKPKDTLMISRTPEVTCVVEDVSHEDPEVKFNWYVDGVEVHNAKTKPREEQYNSTYRVVSVLPVLHQDWLNGKEYKCKVSNKALPAPIEKTISKAKGQPREPQVYTLPPSRDELTKNQVSLTCLVKGFYPSDIVVEWESNGQPENNYKTTPPVLDSDGSFFLYSKLTVDKSRWQQGTVFSCSVMHEALHNHYTQKSLSLSPGK = 8.4
C8A_61 (other, EU numbering) CPPCTAPELLGGPSVFLFPPKPKDTLMISRTPEVTCVVEDVSHEDPEVKFNWYVDGVEVHNAKTKPREEQYNSTYRVVSVLTVLHQDWLNGKEYKCKVSNKALPAPIEKTISKAKGQPREPQVYTLPPSRDELTKNQVSLTCLVKGFYPSDIAVEWESNGQPENNYKTTPLVLDSDGSFFLYSKLTVDKSRWQQGNVFSCSVMHEALHYHYTQKSLSLSPGK = 5.5
C5A_41 (other, EU numbering) CPPCPAPELLGGPSVFLFPPKPKDTLMISRTPEVTCVVVDVSHEDPEVKFNWYVDGVEVHNAKTKPREEQYNSTYRVVSVLTVLHQDWLDGKEYKCKVSNKTLPVPIEKTISKAKGQPREPQVYTLPPSRDELTKNRVSLTCLVKGFYPSDIAVEWESNGQPENNYKTTPPVLDSDGSFFLYSKLTVDKSRWQQGNVFSCSVMHEALHYHYTQKSLSLSPGK = 4.3
T4A_41 (other, EU numbering) CPPCPAPELLGGPSVRLFPPKPKDTLMISRTPEVTCVVEDVSHEDPEVKFNWYVDGVEVHNAKTKPREEQYNSTYRVVSVLPVLHQDWLNGKEYKCKVSNKALPAPIEKTISKAKGQPREPQVYTLPPSRDELTKNQVSLTCLVKGFYPSDIVVEWESNGQPENNYKTTPPVLDSDGSFFLYSKLTVDKSRWQQGNVFSCSVMHEALHNHYTQKSLSLSPGK = 8
T4A_04 (other, EU numbering) CPPCPAPELLGGPSVFLFPPKPKDTLMISRTPEVTCVVVDVSHEDPEVKFNWYVDGVEVHNAKTKPREEQYNSTYRVVSVLTVLHQDWLDGKEYKCKVSNKALPVPIEKTISKAKGQPREPQVYTLPPSRDELTKNQVSLTCLVKGFYPSDIAVEWVSNGQPENNYKTTPPVLDSDGSFFLYSKLTVDKSRWQQGNVFSCSVMHEALHYHYTQKSLSLSPGK = 9.7
T5A_45 (other, EU numbering) CPPCPTPELLGGPSVLLFPPKPKDTLMISRTPEVTCVVEDVSHEDPEVKFNWYVDGVEVHNAKTKPREEQYNSTYRVVSVLTVLHQDWLNGKEYKCKVSNKALPAPIEKTISKAKGQPREPQVYTLPPSRDELTKNQVSLTCLVKGFYPSDITVEWESNGQPENNYKTTPPMLDSDGSFFLYSKLTVDKSRWQQGNVFSCSVMHEALHSHYTQKSLSLSPGK = 14.3
C5A_15 (other, EU numbering) CPPCPAPELLGGPSVFLFPPKPKDTLMISRTPEVTCVVVDVSHEDPEVKFNWYVDGVEVHNAKTKPREEQYNSTYRVASVLTVLHQDWLDGKEYKCKVSNKALPVPIEKTISKAKGQPREPQVYTLPPSRDELTKNQVSLTCLVKGFYPSDIAVEWVSNGQPENNYKTTPPVLDSDGSFFLYSKLTVDKSRWQQGNVFSCSVMHEALHYHYTQKSLSLSPGK = 10.9
C3A_01 (other, EU numbering) CPPCPAPELLGGPSVFLFPPKPKDTLMISRTPEVTCVVVDVSHEDPEVKFNWYVDGVEVHNAKTKPREEQYNSTYRVVSVLTVLHQDWLDGKEYKCKVSNKALPVPIEKTISKAKGQPREPQVYTLPPSRDELTKNQVSLTCLVKGFYPSDIAVEWESNGQPENNYKTTPPVLDSDGSFFLYSKLTVDKSRWQQGNVFSCSVMHEALHYHYTQKSLSLSPGK = 8
T5A_03 (other, EU numbering) CPPCPAPELLGGPSVFLFPPKPKDTLMISRTPEVTCVVEDVSHEDPEVKFNWYVDGVEVHNAKTKPREEQYNSTYRVVSVLTVLHQDWLNGKEYKCKVSNKALPAPIEKTISKAKGQPREPQVYTLPPSRDELTKNQVSLTCLVKGFYPSDIAVEWESNGQPENNYKTTPLVLDSDGSFFLYSKLTVDKSRWQQGNVFSCSVMHEALHSHYTQKSLSLSPGK = 6.4

Now take the following binder into account.
Query (binder): C8A_15 (other, EU numbering) CPPCPAPELLGGPSVFLFPPKPKDTLMISRTPEVTCVVVDVSHEDPEVKFNWYVDGVEVHNAKTKPREEQYNSTYRVVSVLTVLHQDWLDGKEYKCKVSNKVLPVPIEKTISKAKGQPREPQVYTLPPSRDELTKNQVSLTCLVKGFYPSDIAVEWESNGQPENNYKTTPPMLDSDGSFFLYSKLTVDKSRWQQGNVFSCSVMHEALHYHYTQKSLSLSPGK ; field requested: Ratio/FWT
23.7
